- Measurement Context: a range is the spread between reports
Property Name: melting point

{"Compound": "c1ccc(-c2ccc(-c3ccc(-c4ccccc4)cc3)cc2)cc1", "Result": "317 to 320 °C"}
{"Compound": "C1CC1", "Result": "-128 to -127 °C"}
{"Compound": "O=C(Cc1ccccc1)c1ccccc1", "Result": "55 to 60 °C"}
{"Compound": "CNCCO", "Result": "-5 to -4.5 °C"}
{"Compound": "CCCC#N", "Result": "-112 °C"}
{"Compound": "O=[N+]([O-])c1cc(S(=O)(=O)c2ccc(F)c([N+](=O)[O-])c2)ccc1F", "Result": "194 °C"}
{"Compound": "O=C(c1ccccc1)c1ccc(C(F)(F)F)cc1", "Result": "115 to 118 °C"}
{"Compound": "O=NN1CN2CN(C1)CN(N=O)C2", "Result": "204 to 207 °C"}
{"Compound": "ClC(Cl)(Cl)c1ccccc1", "Result": "-8 to -4 °C"}
{"Compound": "CCCCCS", "Result": "-76 to -75.7 °C"}
{"Compound": "O=[N+]([O-])c1ccc(CCl)cc1", "Result": "71 to 73 °C"}
{"Compound": "CCCCCCCCCCCBr", "Result": "-10 to -9 °C"}
{"Compound": "Nc1ccccc1Br", "Result": "29 to 32 °C"}
{"Compound": "CC(C)(CO)CO", "Result": "125 to 130 °C"}
{"Compound": "O=C(c1ccccc1)c1ccccc1O", "Result": "39 to 40 °C"}
{"Compound": "O=[N+]([O-])c1ccc2c3c(cccc13)CC2", "Result": "103 to 104 °C"}
{"Compound": "CC(=O)c1cccc([N+](=O)[O-])c1", "Result": "78 to 81 °C"}
{"Compound": "COc1cc(C(=O)O)cc(OC)c1O", "Result": "205 to 208 °C"}
{"Compound": "Cc1ccc(O)c(C)c1", "Result": "22 to 27 °C"}
{"Compound": "Clc1ccc(C(c2ccc(Cl)cc2)C(Cl)Cl)cc1", "Result": "109 to 110 °C"}
{"Compound": "O=C(O)C(S)C(S)C(=O)O (centres undefined)", "Result": "193 to 197 °C"}
{"Compound": "Cc1cc(C)c(C)c(CCl)c1C", "Result": "69.5 to 70.5 °C"}
{"Compound": "COC(=O)c1ccc(N)cc1", "Result": "110 to 114 °C"}
{"Compound": "CCCCCCCN", "Result": "-23 to -18 °C"}
{"Compound": "Nc1cccnc1", "Result": "61 to 64.5 °C"}
{"Compound": "O=C(O)c1cc([N+](=O)[O-])cc([N+](=O)[O-])c1", "Result": "205 to 206 °C"}
{"Compound": "Nc1nc(N)nc(-c2ccccc2)n1", "Result": "226 to 227 °C"}
{"Compound": "Cc1cc(C)cc(C(=O)O)c1", "Result": "170 to 171 °C"}
{"Compound": "CC(=O)C(C)C", "Result": "-93.1 to -92 °C"}
{"Compound": "CCCCC", "Result": "-130 °C"}
{"Compound": "COc1ccc([N+](=O)[O-])cc1N", "Result": "117 to 118 °C"}
{"Compound": "NCCC(=O)O", "Result": "196 to 200 °C"}
{"Compound": "CCCCCC#N", "Result": "-80.3 to -80 °C"}
{"Compound": "CCCCCCCCCCCCCCCC(C)C", "Result": "5.7 to 6 °C"}
{"Compound": "Nc1cnc2ccccc2c1", "Result": "91.5 to 94 °C"}
{"Compound": "O=C(O)Cc1cccc(F)c1", "Result": "43 to 46 °C"}
{"Compound": "COC(=O)OC", "Result": "1 to 4 °C"}
{"Compound": "CS(=O)(=O)OCCCCOS(C)(=O)=O", "Result": "116 °C"}
{"Compound": "O=Cc1ccc[nH]1", "Result": "43 to 46.5 °C"}
{"Compound": "CC(F)(F)F", "Result": "-111 °C"}
{"Compound": "NS(=O)(=O)c1ccccc1", "Result": "151 to 153 °C"}
{"Compound": "C=CCCCCCCCCCCCCCCCC", "Result": "16 to 18 °C"}
{"Compound": "COc1ccc2c3c1O[C@H]1[C@@H](O)C=C[C@H]4[C@@H](C2)N(C)CC[C@@]341", "Result": "155 to 158 °C"}
{"Compound": "N#Cc1ccc(C=O)cc1", "Result": "100 to 102 °C"}
{"Compound": "OCCOc1ccc2ccccc2c1", "Result": "74 to 76.7 °C"}
{"Compound": "Cc1cccc(-c2ccccc2)c1", "Result": "4.5 to 5 °C"}
{"Compound": "NC(=O)c1ccc([N+](=O)[O-])cc1Cl", "Result": "170 to 172 °C"}
{"Compound": "CC(C)OC(=O)Nc1ccccc1", "Result": "87.3 to 88 °C"}
{"Compound": "Cn1nnnc1S", "Result": "122 to 127 °C"}
{"Compound": "Sc1ccccn1", "Result": "127 to 129 °C"}
{"Compound": "CC1=CC(=O)C=C(C)C1=O", "Result": "70 to 72.5 °C"}
{"Compound": "CCC(C)(C)CC", "Result": "-135 to -134 °C"}
{"Compound": "Cc1n[nH]c(=O)[nH]c1=O", "Result": "211 to 213 °C"}
{"Compound": "Fc1c(F)c(F)c(C(F)(F)F)c(F)c1F", "Result": "-66 to -65.6 °C"}
{"Compound": "CC(C)CNCC(C)C", "Result": "-77 to -73.5 °C"}
{"Compound": "O=CC=Cc1ccco1", "Result": "51 to 54 °C"}
{"Compound": "CC(=O)c1cc(C)c(C)cc1C", "Result": "10 to 10.5 °C"}
{"Compound": "Nc1ccc2ncsc2c1", "Result": "87 to 88 °C"}
{"Compound": "O=C(O)c1cc(F)c(F)cc1F", "Result": "98 to 100 °C"}
{"Compound": "O=C(O)c1cc(F)cc(F)c1", "Result": "121 to 122 °C"}
{"Compound": "COc1ccc(OC)c(N)c1", "Result": "80 to 82.5 °C"}
{"Compound": "CCOc1ccc(C(C)(C)COCc2cccc(Oc3ccccc3)c2)cc1", "Result": "36 to 37 °C"}
{"Compound": "O=C(O)Cc1ccc(Cl)cc1", "Result": "103 to 106 °C"}
{"Compound": "CCc1cccnc1", "Result": "-77 to -76.9 °C"}
